For each record, write down the corresponding Kd.
- target-under-test: Cys-HLA (Staphylococcus aureus)

QUERY: # query: Kd of entry Ma8G02 (VHH) VHH: QVQLVESGGGLVLPGGSLRLSCAASGSSLDHYVIGWFRQYPGKEREGVSCISRSGGSTNYADSVKGRFTVSRDNVKNMVYLQMNSLEPEDSAEYYCAAQRNLGNFCVLGWVEYDDWGQGTQVTVSS
RESULT: ≤ 10 pM

QUERY: // lookup Kd for Bm28H07 (VHH) VHH: QVQLVESGGGSVQPGNSLRLSCKVSGRTFNSYALGWFRRRPGDQRDFVASIIRSTGGTSYADSVKGRFTISYDNVQNTVDLQMSSLEPEDTAIYYCAGGDGHIYAFGYDYWGQGTQVTVSS
RESULT: ≤ 10 pM

QUERY: Fill in: Kd of Ma31B06 (VHH) VHH: QVQLVQSGGGLVQPGGTLRLSCAASPASGFTLDLYTIAWFLQAPGKEREGVSAISLSDEITYYSDAVKGRFTISRDSAKNTVFLQMDRLKPEDTGVYYCAIGAFDFILKEADADYWGQGTQVTVSS is ___
RESULT: 75 pM

QUERY: Quick one: Kd of Ma8H03 (VHH) VHH: QVQLVESGGGLVHPGGSLRLSCAASGSSLDHYVIGWFRQVPGKQREGISCISSGGSTNYADSVKGRFTVSRDNVKSTVYLQMNSLAPDDSAEYYCAAQRNLGNFCVLGWLEYDDWGQGTQVTVSS ?
RESULT: ≤ 10 pM
